target: Human GLP-1 receptor (Homo sapiens, UniProt P43220); construct: expressed in transfected cells; assay: Measurement of GLP-1 receptor agonist activity (cAMP assay); assay type: cell-based; conditions: cAMP increase in GLP-1 R/CHO-K1 cells; 2 nM human GLP-1 (7-36) = 100%, DMSO only = 0%
Sequence (P43220 24-463): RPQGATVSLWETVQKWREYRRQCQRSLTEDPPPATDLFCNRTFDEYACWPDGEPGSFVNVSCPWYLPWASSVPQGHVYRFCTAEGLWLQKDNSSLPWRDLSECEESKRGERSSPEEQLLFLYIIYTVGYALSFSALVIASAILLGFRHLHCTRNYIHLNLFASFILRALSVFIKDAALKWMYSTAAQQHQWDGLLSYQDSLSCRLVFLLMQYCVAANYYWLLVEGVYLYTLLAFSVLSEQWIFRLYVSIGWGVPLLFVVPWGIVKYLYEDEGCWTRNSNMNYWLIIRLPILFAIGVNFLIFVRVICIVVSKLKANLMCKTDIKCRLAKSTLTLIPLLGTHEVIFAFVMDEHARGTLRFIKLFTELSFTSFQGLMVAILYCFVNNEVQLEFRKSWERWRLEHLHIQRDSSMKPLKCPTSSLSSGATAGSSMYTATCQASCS
parameter.measured: pEC50
In simple prose, pEC50 is minus the logarithm base ten of a concentration in moles per litre.

Input: Identify measured pEC50 corresponding to C[C@H]1c2nc(OCc3ccc(Cl)cc3Cl)c(C(F)(F)F)cc2CCN1Cc1nc2ccc(C(=O)O)cc2n1C[C@@H]1CCO1 [Compound I-255]
Output: 9.99

Input: Identify measured pEC50 corresponding to C[C@H]1c2cc(OCc3cc(F)c(Cl)cc3F)c(Cl)cc2CCN1Cc1nc2ccc(C(=O)O)c(F)c2n1C[C@@H]1CCO1 [Compound I-326]
Output: 8.88

Input: Identify measured pEC50 corresponding to COc1cc(C(=O)O)cc2c1nc(CN1CCc3cc(C(F)(F)F)c(OCc4ccc(C#N)cc4F)cc3[C@@H]1C)n2C[C@@H]1CCO1 [Compound I-235]
Output: 9.42

* * *

target: Human GLP-1 receptor (Homo sapiens, UniProt P43220); construct: expressed in transfected cells; assay: Measurement of GLP-1 receptor agonist activity (cAMP assay); type: cell-based; details: hGLP-1R/CHO-K1 cells, cAMP increase, 37° C. 1 hour
parameter.measured: EC50 (nM)
Expressed in nM, but write only the number.

In [3]: df
Out[3]:
                                   compound                              study_system  result_number
0  O=C(O)c1ccc2nc(CN3CCc4cc(C(F)(F)F)c(OCc5ccc(Cl)cc5F)cc4C3CF)n(C[C@@H]3CCO3)c2c1 (mixture of isomers)  Human GLP-1 receptor (Homo sapiens, UniProt P43220)            4.5
1  C[C@H]1c2cc(OCc3cc(F)c(Cl)cc3F)c(C(F)(F)F)cc2CCN1Cc1nc2ccc(C(=O)O)nc2n1C[C@@H]1CCO1  Human GLP-1 receptor (Homo sapiens, UniProt P43220)            2.2

Input: Find the measured EC50 of "O=C(O)c1ccc2nc(CN3CCc4cc(C(F)(F)F)c(OCc5ccc(Cl)cc5F)cc4C3)n(C[C@H]3CCO3)c2c1" with Human GLP-1 receptor (Homo sapiens, UniProt P43220) as test system.
Output: 73.8

* * *

# maps each entry to its pEC50
molecular target: Human GLP-1 receptor (Homo sapiens); construct: expressed in transfected cells; test: Measurement of GLP-1 receptor agonist activity (cAMP assay); type: cell-based; settings: hGLP-1R/CHO-K1 cells, cAMP increase, 37° C. 1 hour
In simple prose, pEC50 is minus the logarithm base ten of a concentration in moles per litre.

Answered cases to consult:
In [3]: df
Out[3]:
                                   compound                         study_system  parameter_measured  result_number
0  C[C@H]1c2cc(OCc3ccc(F)cc3)c(C(F)(F)F)cc2CCN1Cc1nc2c(F)cc(C(=O)O)cc2n1C[C@@H]1CCO1  Human GLP-1 receptor (Homo sapiens)               pEC50           8.92
1  O=C(O)c1cc(F)c2nc(CN3CCc4cc(C(F)(F)F)c(OCc5ccc(Cl)cc5F)cc4C3)n(C[C@@H]3CCO3)c2c1  Human GLP-1 receptor (Homo sapiens)               pEC50           8.83
2  C[C@H]1c2cc(OCc3cc(F)c(Cl)cc3F)c(C(F)(F)F)cc2CCN1Cc1nc2ccc(C(=O)O)cc2n1C[C@@H]1CCO1  Human GLP-1 receptor (Homo sapiens)               pEC50           8.92
3  O=C(O)c1ccc2nc(CN3CCc4cc(C(F)(F)F)c(OCc5ccc(Cl)cc5Cl)cc4C3)n(C[C@@H]3CCO3)c2c1  Human GLP-1 receptor (Homo sapiens)               pEC50           8.84
4  O=C(O)c1ccc2nc(CN3CCc4cc(C(F)(F)F)c(OCc5ccccc5F)cc4C3)n(C[C@@H]3CCO3)c2c1  Human GLP-1 receptor (Homo sapiens)               pEC50           7.42

Input: Find the measured pEC50 of "C[C@H]1c2cc(OCc3ccc(Cl)cc3Cl)c(C(F)(F)F)cc2CCN1Cc1nc2c(F)cc(C(=O)O)cc2n1C[C@@H]1CCO1" with Human GLP-1 receptor (Homo sapiens) as test system.
Output: 9.74

Input: Find the measured pEC50 of "C[C@H]1c2cc(OCc3ccc(Cl)cc3)c(C(F)(F)F)cc2CCN1Cc1nc2ccc(C(=O)O)nc2n1C[C@@H]1CCO1" with Human GLP-1 receptor (Homo sapiens) as test system.
Output: 8.71

Input: Find the measured pEC50 of "C[C@H]1c2cc(OCc3ccc(C#N)cc3)c(C(F)(F)F)cc2CCN1Cc1nc2ccc(C(=O)O)c(F)c2n1C[C@@H]1CCO1" with Human GLP-1 receptor (Homo sapiens) as test system.
Output: 8.84

Input: Find the measured pEC50 of CCC1c2cc(OCc3ccc(Cl)cc3F)c(C(F)(F)F)cc2CCN1Cc1nc2ccc(C(=O)O)cc2n1C[C@@H]1CCO1 (mixture of isomers) with Human GLP-1 receptor (Homo sapiens) as test system.
Output: 8.00

Input: Find the measured pEC50 of "O=C(O)c1ccc2nc(CN3CCc4cc(C(F)(F)F)c(OCc5ccc(F)c(F)c5)cc4C3)n(C[C@@H]3CCO3)c2c1" with Human GLP-1 receptor (Homo sapiens) as test system.
Output: 7.78

Input: Find the measured pEC50 of "O=C(O)c1ccc2nc(CN3CCc4cc(C(F)(F)F)c(OCc5ccc(Cl)cn5)cc4C3)n(C[C@@H]3CCO3)c2c1" with Human GLP-1 receptor (Homo sapiens) as test system.
Output: 8.48

Input: Find the measured pEC50 of "O=C(O)c1ccc2nc(CN3CCc4cc(C(F)(F)F)c(OCc5ccc(F)cc5F)cc4C3)n(C[C@@H]3CCO3)c2c1" with Human GLP-1 receptor (Homo sapiens) as test system.
Output: 8.16

Input: Find the measured pEC50 of "COc1cc(C(=O)O)cc2c1nc(CN1CCc3cc(C(F)(F)F)c(OCc4ccc(Cl)cc4F)cc3C1)n2C[C@@H]1CCO1" with Human GLP-1 receptor (Homo sapiens) as test system.
Output: 9.24

Input: Find the measured pEC50 of "Cc1cc(C(=O)O)cc2c1nc(CN1CCc3cc(C(F)(F)F)c(OCc4ccc(Cl)cc4F)cc3C1)n2C[C@@H]1CCO1" with Human GLP-1 receptor (Homo sapiens) as test system.
Output: 8.08

Input: Find the measured pEC50 of "C[C@H]1c2cc(OCc3ccc(Cl)cc3F)c(C(F)(F)F)cc2CCN1Cc1nc2ccc(C(=O)O)c(F)c2n1C[C@@H]1CCO1" with Human GLP-1 receptor (Homo sapiens) as test system.
Output: 9.49

Input: Find the measured pEC50 of "Cn1ccc(COc2cc3c(cc2C(F)(F)F)CCN(Cc2nc4ccc(C(=O)O)cc4n2C[C@@H]2CCO2)C3)n1" with Human GLP-1 receptor (Homo sapiens) as test system.
Output: 8.14

Input: Find the measured pEC50 of "C[C@H]1c2cc(OCc3ccc(Cl)cc3F)c(C(F)(F)F)cc2CCN1Cc1nc2ccc(C(=O)O)cc2n1C[C@@H]1CCO1" with Human GLP-1 receptor (Homo sapiens) as test system.
Output: 9.53

* * *

# maps each entry to its Emax
Target: Human GLP-1 receptor (Homo sapiens)
Construct: expressed in transfected cells
Test: Measurement of GLP-1 receptor agonist activity (cAMP assay)
Type: cell-based
Conditions: CHO-K1, maximum effect, cAMP increase in GLP-1 R/CHO-K1 cells; 2 nM human GLP-1 (7-36) = 100%, DMSO only = 0%; read-out: Emax
Protocol: Test Example 1: (Measurement of GLP-1 Receptor Agonist Activity) Human GLP-1 receptor stably expressing cells (hGLP-1R/CHO-K1 cells) are cultured in an α-MEM medium (Sigma) containing 10% FBS (Hyclone), 2% GlutaMAX (Gibco), 1% G418 (Nacalai Tesque), and 1% Penicillin-Streptomycin Mixed Solution (Sigma) at 37° C. under 5% CO2 conditions, and recovered by treating a 10 fold diluted 5.0 g/l-trypsin/5.3 mmol/l-EDTA solution (Nacalai Tesque) and cryopreserved. […]
Expressed in %, but write only the number.

Answered cases to consult:
>>> df
                                   compound  result_number
0  C[C@H]1c2nc(OCc3ccc(OC(F)F)cc3F)c(C(F)(F)F)cc2CCN1Cc1nc2ccc(C(=O)O)c(F)c2n1C[C@@H]1CCO1 [Compound I-360]            115
1  C[C@H]1c2nc(OCc3ccccc3Cl)c(C(F)(F)F)cc2CCN1Cc1nc2c(F)cc(C(=O)O)cc2n1C[C@@H]1CCO1 [Compound I-368]            120
2  COc1cc(C(=O)O)cc2c1nc(CN1CCc3cc(C(F)(F)F)c(OCc4ccc(OC(F)F)cc4F)nc3[C@@H]1C)n2C[C@@H]1CCO1 [Compound I-283]            118

Input: Identify measured Emax corresponding to O=C(O)c1ccc2nc(CN3CCc4cc(C(F)(F)F)c(OCc5ccc(Cl)cc5)nc4C3)n(C[C@@H]3CCO3)c2c1F [Compound I-294]
Output: 97.7

Input: Identify measured Emax corresponding to COc1cc(C(=O)O)cc2c1nc(CN1CCc3cc(Cl)c(OCc4ccc(Cl)cc4F)cc3[C@@H]1C)n2C[C@@H]1CCO1 [Compound I-344]
Output: 110

Input: Identify measured Emax corresponding to COc1cc(Cl)ccc1COc1cc2c(cc1Cl)CCN(Cc1nc3ccc(C(=O)O)nc3n1C[C@@H]1CCO1)[C@H]2C [Compound I-314]
Output: 98.3

Input: Identify measured Emax corresponding to O=C(O)c1ccc2nc(CN3CCc4cc(C(F)(F)F)c(OCc5c(F)cc(Cl)cc5F)nc4C3)n(C[C@@H]3CCO3)c2c1 [Compound I-279]
Output: 110

Input: Identify measured Emax corresponding to C[C@H]1c2nc(OCc3ccc(C#N)cc3F)c(C(F)(F)F)cc2CCN1Cc1nc2ccc(C(=O)O)c(F)c2n1C[C@@H]1CCO1 [Compound I-240]
Output: 122

Input: Identify measured Emax corresponding to C[C@H]1c2nc(OCc3ccc(Cl)cc3F)c(C(F)(F)F)cc2CCN1Cc1nc2c(F)cc(C(=O)O)cc2n1C[C@@H]1CCO1 [Compound I-273]
Output: 121

Input: Identify measured Emax corresponding to C[C@H]1c2cc(OCc3ccc(C4CC4)cc3)c(Cl)cc2CCN1Cc1nc2ccc(C(=O)O)c(F)c2n1C[C@@H]1CCO1 [Compound I-321]
Output: 84

Input: Identify measured Emax corresponding to O=C(O)c1cc(F)c2nc(CN3CCc4cc(C(F)(F)F)c(OCc5ccc(Cl)cc5)nc4C3)n(C[C@@H]3CCO3)c2c1 [Compound I-380]
Output: 108

Input: Identify measured Emax corresponding to COc1ccc(COc2nc3c(cc2C(F)(F)F)CCN(Cc2nc4ccc(C(=O)O)nc4n2C[C@@H]2CCO2)[C@H]3C)cc1 [Compound I-286]
Output: 115

Input: Identify measured Emax corresponding to COc1cc(C(=O)O)cc2c1nc(CN1CCc3cc(C(F)(F)F)c(OCc4ccc(C)cc4)cc3[C@@H]1C)n2C[C@@H]1CCO1 [Compound I-227]
Output: 103

Input: Identify measured Emax corresponding to C[C@H]1c2cc(OCc3c(F)cc(Cl)cc3F)c(Cl)cc2CCN1Cc1nc2ccc(C(=O)O)cc2n1C[C@@H]1CCO1 [Compound I-312]
Output: 102

Input: Identify measured Emax corresponding to C[C@H]1c2cc(OCc3ccc(F)cc3F)c(Cl)cc2CCN1Cc1nc2ccc(C(=O)O)c(F)c2n1C[C@@H]1CCO1 [Compound I-323]
Output: 101

Input: Identify measured Emax corresponding to O=C(O)c1ccc2nc(CN3CCc4cc(C(F)(F)F)c(OCc5ccc(Cl)cc5F)nc4C3)n(C[C@@H]3CCO3)c2n1 [Compound I-306]
Output: 98.7

Input: Identify measured Emax corresponding to C[C@H]1c2cc(OCc3ccc(Cl)cc3)c(Cl)cc2CCN1Cc1nc2c(F)cc(C(=O)O)cc2n1C[C@@H]1CCO1 [Compound I-332]
Output: 105

Input: Identify measured Emax corresponding to C[C@H]1c2nc(OCc3ccccc3Cl)c(C(F)(F)F)cc2CCN1Cc1nc2ccc(C(=O)O)cc2n1C[C@@H]1CCO1 [Compound I-253]
Output: 119

Input: Identify measured Emax corresponding to C[C@H]1c2nc(OCc3ccc(C4CC4)cc3)c(C(F)(F)F)cc2CCN1Cc1nc2ccc(C(=O)O)c(F)c2n1C[C@@H]1CCO1 [Compound I-356]
Output: 118
